STUDY SYSTEM: UniProt:P05089
TEST DETAILS: Arginase-1 colorimetric urea assay (inhibition)
Type: biochemical
RECORDED CONDITIONS: pH 9.5; Cheng-Prusoff equation; read-out: Ki (nM) (95% CI)
Protocol: Arginase-1 activity was monitored by measurement of the rate of urea formation in a classic colorimetric assay ([Jung et al., 1975], [Zawada et al., 2009]). […] Compounds were either dissolved and diluted in DMSO, followed by further dilution in reaction buffer, or dissolved in MilliQ water (MQ) and diluted in reaction buffer to the desired concentrations. […] The reported values were measured in quadruplicate in four independent experiments. […]
OBSERVABLE: Ki

Request: Endpoint output: Ki of N[C@@H](CCCCB(O)O)C(=O)O [ABH, (2S)-2-amino-6-boronohexanoic acid] . Value?
Response: 11 nM

###

STUDY SYSTEM: human Arginase-1 (Homo sapiens)
TEST DETAILS: Surface plasmon resonance binding kinetics
RECORDED CONDITIONS: pH 7.4
OBSERVABLE: Kd (nM)
Field format: number, assumed nM, no unit text.

Request: Recorded Kd for N[C@@H](CCCCB(O)O)C(=O)O [ABH, (2S)-2-amino-6-boronohexanoic acid] with human Arginase-1 (Homo sapiens), please?
Response: 797

###

STUDY SYSTEM: UniProt:P05089
TEST DETAILS: Surface plasmon resonance binding kinetics
RECORDED CONDITIONS: pH 9.5
OBSERVABLE: pKd
Answer as the number alone; pKd is minus log10 of concentration in mol/L.

Request: Any idea what pKd came out for N[C@@H](CCCCB(O)O)C(=O)O on UniProt:P05089?
Response: 7.57

###

STUDY SYSTEM: human Arginase-1 (Homo sapiens, UniProt P05089)
Sequence (P05089 whole entry): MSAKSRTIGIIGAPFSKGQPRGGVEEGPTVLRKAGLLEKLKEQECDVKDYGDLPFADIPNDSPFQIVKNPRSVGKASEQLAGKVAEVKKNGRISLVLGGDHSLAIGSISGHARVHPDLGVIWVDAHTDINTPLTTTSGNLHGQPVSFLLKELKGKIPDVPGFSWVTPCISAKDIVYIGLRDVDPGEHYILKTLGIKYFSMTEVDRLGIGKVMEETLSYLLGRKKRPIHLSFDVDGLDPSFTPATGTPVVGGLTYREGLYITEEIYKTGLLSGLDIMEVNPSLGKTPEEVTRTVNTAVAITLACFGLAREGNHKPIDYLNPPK
TEST DETAILS: Arginase-1 colorimetric urea assay (inhibition)
Assay type: biochemical
RECORDED CONDITIONS: pH 7.4; Cheng-Prusoff equation; read-out: Ki (nM) (95% CI)
OBSERVABLE: Ki
Answer shape: numeric part, then the unit.

Request: Look up Ki: N[C@@H](CCCCB(O)O)C(=O)O [ABH, (2S)-2-amino-6-boronohexanoic acid]
Response: 88 nM

###

STUDY SYSTEM: human Arginase-1 (Homo sapiens)
TEST DETAILS: Arginase-1 colorimetric urea assay (inhibition)
Type: biochemical
RECORDED CONDITIONS: pH 7.4; 5 nM Arginase-1, 2.5 mM L-arginine; read-out: IC50 (nM) (95% CI)
OBSERVABLE: IC50 (nM)
Form entry: value (nM) — number only.

Request: Field request: IC50 | item: N[C@@H](CCCCB(O)O)C(=O)O
Response: 184
